System: Oryctolagus sp.
Settings: acute; dermal; New Zealand
Would you mind telling me the reported LD50 of each entry?

Task item: Need LD50 of CCCCCCCCCc1cc2ccccc2c(S(=O)(=O)[O-])c1CCCCCCCCC.CCCCCCCCCc1cc2ccccc2c(S(=O)(=O)[O-])c1CCCCCCCCC.[Ca+2] [Calcium bis(dinonylnaphthalenesulphonate)] , thanks.
Reply: > 20000 mg/kg

Task item: Need LD50 of O=C1OC(=O)C2CCCCC12 (stereo not drawn) [Hexahydrophthalic anhydride] , thanks.
Reply: > 2000 mg/kg

Task item: Need LD50 of CC(C)(c1cc(Br)c(O)c(Br)c1)c1cc(Br)c(O)c(Br)c1 , thanks.
Reply: > 2000 mg/kg
